In this section we review reported inhibition values for a set of molecules.
Test: blockers of Trypanosoma cruzi growth in host cells – cell-based, NIH3T3 host, beta-gal parasite, luminescence, cherry-pick, confirmation (AID 651739)
Experimental Context: T. cruzi beta-gal in NIH3T3, GalScreen luminescence, 90 h; at 8.35 µM; hits give high values
Screen size: about 5,600 compounds; about 4,100 (73%) were called active. Roughly 4% stayed inconclusive and do not appear here. So high a share suggests a set chosen from earlier hits. The list is a sample of the results.
Just the number please, in %, no unit attached.

Some solved entries appear below for comparison.
Give the value of inhibition reported for the following: `CC(=O)N1[C@H](CNC(=O)C2CC2)[C@@H](c2ccc(-c3cccc(F)c3)cc2)[C@@H]1CO`
19.2

Quote inhibition reported for `CC(C)CC#Cc1ccc2c(c1)O[C@H](CN(C)Cc1ccncc1)[C@H](C)CN([C@H](C)CO)S2(=O)=O` please.
97.8

In one line, give reported inhibition of the entry `C[C@@H]1CCCCO[C@@H](CN(C)Cc2ccccc2)[C@H](C)CN([C@H](C)CO)C(=O)c2cc(NC(=O)Nc3cccc4ccccc34)ccc2O1` .
96.4

Could you please provide reported inhibition for `C[C@H]1CN([C@@H](C)CO)C(=O)Cc2cc(NC(=O)Cc3cn(C)c4ccccc34)ccc2O[C@@H]1CN(C)Cc1ccccc1` ? Thanks!
77.4

Note down inhibition recorded for `COc1ccccc1C#Cc1ccc([C@H]2[C@H](CO)N3CCCCN(C(=O)C4CCC4)C[C@@H]23)cc1`
114

Look up inhibition of `C[C@@H]1CN([C@@H](C)CO)C(=O)c2cc(NC(=O)Nc3cccc4ccccc34)ccc2O[C@@H](C)CCCCO[C@H]1CN(C)Cc1ccccc1` and report it.
107

Continuing:
Give inhibition for the following molecule: `C[C@H]1CCCCO[C@H](CN(C)Cc2ccccc2)[C@@H](C)CN([C@@H](C)CO)C(=O)c2cc(NC(=O)NC3CCCCC3)ccc2O1`
111

Output measured inhibition for this item: `C[C@@H]1CN([C@H](C)CO)S(=O)(=O)c2ccc(C#CC3CCCC3)cc2O[C@@H]1CN(C)C(=O)Cc1ccncc1`
92.6

Query inhibition for `Cc1ccccc1-c1ccc([C@H]2[C@H]3CN(S(=O)(=O)c4ccc(F)cc4)CCCCN3[C@H]2CO)cc1`
97.2

Return the recorded inhibition value; entry: `COc1ccccc1C#Cc1ccc([C@@H]2[C@H](CO)N3CCCCN(C(=O)C4CCCC4)C[C@@H]23)cc1`
99.8

Tell me its inhibition given `CC(C)CC#Cc1ccc2c(c1)O[C@H](CN(C)Cc1ccccc1F)[C@@H](C)CN([C@@H](C)CO)S2(=O)=O` as the entry.
96.7

----------
Test: blockers of Trypanosoma cruzi growth in host cells – cell-based, NIH3T3 host, beta-gal parasite, luminescence, cherry-pick, confirmation (AID 651739)
Experimental Context: T. cruzi beta-gal in NIH3T3, GalScreen luminescence, 90 h; at 8.35 µM
Among all 5,600 compounds or so, about 4,100 (73%) were called active. Not shown: some 4% with an inconclusive outcome.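 Rule for the calls: active = mean replicate inhibition above about 95% and at least 55% of replicates individually reaching it (limit read from the data); inconclusive = only one of the two criteria is met; inactive = neither criterion is met.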 The set was probably picked from earlier hits. The list is a sample of the results.
Choose one outcome from this list and give only that: active, inactive

Hello, I am checking results. What call was entered for `COc1ccc(C#Cc2ccc([C@@H]3[C@@H](CO)N4CCCCN(C(=O)c5ccncc5)C[C@@H]34)cc2)cc1` ?
inactive

***
Hey, what did the test say about `C[C@@H]1CCCCO[C@H](CN(C)Cc2ccc(Cl)c(Cl)c2)[C@H](C)CN([C@@H](C)CO)C(=O)c2cc(NC(=O)C3CCCCC3)ccc2O1` ?
active

GET /call?item= `C[C@@H]1CN([C@@H](C)CO)C(=O)Cc2cc(NC(=O)C3CCCCC3)ccc2O[C@@H]1CN(C)Cc1ccc(C(=O)Nc2ccccc2N)cc1` returns the recorded outcome of this test.
active

Fill in: this test's call for `CCS(=O)(=O)N1CCCCN2[C@@H](CO)[C@@H](c3ccc(-c4ccccc4)cc3)[C@@H]2C1` is ___
active

----------
Measured inhibition, listed per entry for reference.
Test: blockers of Trypanosoma cruzi growth in host cells – cell-based, NIH3T3 host, beta-gal parasite, luminescence, cherry-pick, confirmation (AID 651739)
Experimental Context: T. cruzi beta-gal in NIH3T3, GalScreen luminescence, 90 h; at 8.35 µM; hits give high values
Screen size: about 5,600 compounds; about 4,100 (73%) were called active. About 4% were inconclusive and are not listed. So high a share suggests a set chosen from earlier hits. Not all results are given here.
Lab book: enter the figure in %, no units written.

Completed entries (count: 6):
Give inhibition for `O=C(C[C@H]1CC[C@@H]2[C@H](COC[C@H](O)CN2Cc2ccc(Oc3ccccc3)cc2)O1)N1CCN(c2ccccc2)CC1`
101

Name the recorded inhibition of the item `C[C@@H]1CN([C@@H](C)CO)C(=O)c2cc(C#Cc3ccccc3)cnc2O[C@H]1CN(C)C(=O)c1ccccn1` in your answer.
101

Supply reported inhibition belonging to this compound: `CC(C)NC(=O)Nc1ccc2c(c1)C(=O)N([C@H](C)CO)C[C@H](C)[C@H](CN(C)C(=O)Nc1ccc(C(F)(F)F)cc1)OCCCC[C@@H](C)O2`
110

Provide measured inhibition value, entry: `O=C(CN1CCOCC1)N1CCCCN2[C@@H](CO)[C@H](c3ccc(-c4ccccc4)cc3)[C@@H]2C1`
81.6

For `COc1ccc(NC(=O)Nc2ccc3c(c2)C(=O)N([C@H](C)CO)C[C@H](C)[C@H](CN(C)S(=O)(=O)c2ccc(Cl)cc2)OCCCC[C@H](C)O3)cc1` , write its inhibition.
104

Return the recorded inhibition value; entry: `C[C@H](CO)N1C[C@H](C)[C@H](CN(C)C(=O)Nc2ccc3c(c2)OCO3)Oc2ncc(C#Cc3cccc(F)c3)cc2C1=O`
85.5

Next:
Given `O=C(c1ccccc1F)N1C[C@H]2[C@@H](c3ccccc31)[C@@H](CO)N2C(=O)c1ccc(F)cc1` , respond with its inhibition.
46.6

----------
Test: blockers of Trypanosoma cruzi growth in host cells – cell-based, NIH3T3 host, beta-gal parasite, luminescence, cherry-pick, confirmation (AID 651739)
Experimental Context: T. cruzi beta-gal in NIH3T3, GalScreen luminescence, 90 h; at 8.35 µM
Hit rate of the full screen: of about 5,600 compounds, about 4,100 (73%) were called active. Inconclusive results (about 4%) are left out.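 The calls were made as follows: active = mean replicate inhibition above about 95% and at least 55% of replicates individually reaching it (limit read from the data); inconclusive = only one of the two criteria is met; inactive = neither criterion is met.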 So high a share suggests a set chosen from earlier hits. The list is a sample of the results.
Reply using exactly one outcome from active, inactive

Example cases with answers are listed next.
Returns: the outcome recorded for `O=C(Nc1ccccc1F)N1CCCCN2[C@H](CO)[C@@H](c3ccc(-c4cccnc4)cc3)[C@H]2C1` in this assay.
inactive

Per the assay record, what outcome was assigned to `CCC(=O)N1CC[C@@H]2[C@@H](CO)N(C)c3ccc(-c4ccc(F)cc4)cc3[C@@H]21` ?
active

Call for entry `C[C@@H]1CN([C@@H](C)CO)C(=O)c2cc(NC(=O)Nc3cccc4ccccc34)ccc2O[C@H]1CN(C)Cc1ccc(Oc2ccccc2)cc1` :
active

# lookup: test call for `C[C@@H]1CCCCO[C@@H](CN(C)S(=O)(=O)c2ccc(Cl)cc2)[C@H](C)CN([C@@H](C)CO)C(=O)c2cc(NC(=O)Cc3ccccc3)ccc2O1`
active

Can you look up the reported call for `COc1ccc(NC(=O)N(C)C[C@@H]2Oc3c(NC(=O)NC4CCCCC4)cccc3C(=O)N([C@@H](C)CO)C[C@@H]2C)cc1` for me?
inactive

For the next question, use this compound.
Which outcome did this test record for the compound `C[C@H](CO)N1C[C@H](C)[C@@H](CN(C)Cc2ccc(-c3ccccc3)cc2)Oc2ccc(NC(=O)CCC(F)(F)F)cc2CC1=O` ?
inactive

----------
Items are presented alongside their recorded inhibition.
Test: blockers of Trypanosoma cruzi growth in host cells – cell-based, NIH3T3 host, beta-gal parasite, luminescence, cherry-pick, confirmation (AID 651739)
Experimental Context: T. cruzi beta-gal in NIH3T3, GalScreen luminescence, 90 h; at 8.35 µM; hits give high values
The campaign covered roughly 5,600 compounds. About 4,100 (73%) were called active. Not shown: some 4% with an inconclusive outcome. So high a share suggests a set chosen from earlier hits. The list is a sample of the results.

Specify inhibition for `O=S(=O)(Cc1ccccc1)N1CCCCN2[C@@H](CO)[C@H](c3ccc(-c4ccccc4)cc3)[C@@H]2C1` and stop.
97.9% (active)

Specify reported inhibition for the compound shown: `CCC(=O)N1CCCCN2[C@H](C1)[C@@H](c1ccc(-c3ccc(F)cc3)cc1)[C@@H]2CO`
60.2% (inactive)

Given `CC(C)CC#Cc1cnc2c(c1)C(=O)N([C@@H](C)CO)C[C@@H](C)[C@H](CN(C)C(=O)Cc1ccncc1)O2` , respond with its inhibition.
76.3% (inactive)

Consider the compound `C[C@@H]1CN([C@@H](C)CO)S(=O)(=O)c2ccc(C#CCN(C)C)cc2O[C@H]1CN(C)C(=O)C1CC1` . State its measured inhibition.
110% (active)

Give the reported value of inhibition for this record: `COc1ccc(-c2ccc([C@H]3[C@H]4CN(C(=O)c5ccc6c(c5)OCO6)CCCCN4[C@H]3CO)cc2)cc1`
106% (active)

New cases:
Answer with the recorded inhibition for the compound listed here: `C[C@H](CO)N1C[C@H](C)[C@H](CN(C)C(=O)Nc2ccc(C(F)(F)F)cc2)OCCCC[C@H](C)Oc2ccc(NC(=O)C3CCCCC3)cc2C1=O`
109% (active)

Give the reported value of inhibition for this record: `N#Cc1cccc(-c2ccc([C@H]3[C@H](CO)N4CCCCN(C(=O)Nc5cccc(F)c5)C[C@@H]34)cc2)c1`
94.2% (inactive)
